These entries and their values trace back to patent US9693556B2.

The reader will find reported herbicidal damage, POST Application ECHCG values listed item by item below.
- System: Echinochloa crus-galli (ECHCG)
- Assay Explanation: Post-emergence herbicidal glasshouse test on Echinochloa crus-galli
- Type: in vivo
- Condition: post-emergence, 1000 g/h, evaluated after 13 days, five point scale
Quantity: herbicidal damage, POST Application ECHCG

Compound Smiles: Cc1nc2nc(C(F)(F)F)c(-c3cnn(C)c(=O)c3O)cc2cc1F
Observed Result: 5 (5=80-100% damage)
//
Compound Smiles: Cn1ncc(-c2cc3cc(N4CCOCC4)cnc3nc2C(F)(F)F)c(O)c1=O
Observed Result: 5 (5=80-100% damage)
//
Compound Smiles: Cn1ncc(-n2ccc(C(F)(F)F)c(-c3ccccc3Cl)c2=O)c(O)c1=O
Observed Result: 5 (5=80-100% damage)
//
Compound Smiles: Cn1ncc(-c2c(S(C)(=O)=O)ccc(Br)c2Br)c(O)c1=O
Observed Result: 4 (4=60-79% damage)
//
Compound Smiles: Cn1ncc(-c2cc(Br)c(Br)cc2S(C)(=O)=O)c(O)c1=O
Observed Result: 5 (5=80-100% damage)
//
Compound Smiles: COc1nccc(-c2cnn(C)c(=O)c2O)c1Cl
Observed Result: 1 (1=0-19% damage)
//
Compound Smiles: Cn1ncc(-c2cccn(-c3cccc(C(F)(F)F)c3)c2=O)c(O)c1=O
Observed Result: 1 (1=0-19% damage)
//
Compound Smiles: CS(=O)(=O)c1ccc(-c2cnn(C3CC3)c(=O)c2O)c(Cl)c1C1=NOCC1
Observed Result: 5 (5=80-100% damage)
//
Compound Smiles: C#CCn1ncc(-c2ccc(S(C)(=O)=O)c(C3=NOCC3)c2C)c(O)c1=O
Observed Result: 5 (5=80-100% damage)
//
Compound Smiles: COc1ccc(-c2cnn(C)c(=O)c2O)c(OC)n1
Observed Result: 1 (1=0-19% damage)
//
Compound Smiles: Cc1ccc2cc(-c3cnn(C)c(=O)c3O)c(C(F)(F)F)nc2n1
Observed Result: 5 (5=80-100% damage)

---

- Tested on: Ipomoea hederacea (IPOHE)
- Assay Explanation: Pre-emergence herbicidal glasshouse test on Ipomoea hederacea
- Format: in vivo
- Condition: pre-emergence, 1000 g/h, evaluated after 13 days, five point scale
The reader will find reported herbicidal damage, PRE Application IPOHE values listed item by item below.
Quantity: herbicidal damage, PRE Application IPOHE

Compound: Cn1ncc(-c2c(S(C)(=O)=O)ccc(Br)c2Br)c(O)c1=O [Compound 1.161]
Quantity: herbicidal damage, PRE Application IPOHE
Observed Result: 1 (1=0-19% damage)
--
Compound: Cn1ncc(-n2ccc(C(F)(F)F)c(-c3ccccc3Cl)c2=O)c(O)c1=O [Compound 1.159]
Quantity: herbicidal damage, PRE Application IPOHE
Observed Result: 1 (1=0-19% damage)
--
Compound: CS(=O)(=O)c1ccc(-c2cnn(C3CC3)c(=O)c2O)c(Cl)c1C1=NOCC1 [Compound 1.158]
Quantity: herbicidal damage, PRE Application IPOHE
Observed Result: 3 (3=40-59% damage)
--
Compound: Cn1ncc(-c2cc(Br)c(Br)cc2S(C)(=O)=O)c(O)c1=O [Compound 1.160]
Quantity: herbicidal damage, PRE Application IPOHE
Observed Result: 2 (2=20-39% damage)
--
Compound: Cc1ccc2cc(-c3cnn(C)c(=O)c3O)c(C(F)(F)F)nc2n1 [Compound 1.154]
Quantity: herbicidal damage, PRE Application IPOHE
Observed Result: 5 (5=80-100% damage)
--
Compound: C#CCn1ncc(-c2ccc(S(C)(=O)=O)c(C3=NOCC3)c2C)c(O)c1=O [Compound 1.163]
Quantity: herbicidal damage, PRE Application IPOHE
Observed Result: 4 (4=60-79% damage)
--
Compound: Cn1ncc(-c2cccn(-c3cccc(C(F)(F)F)c3)c2=O)c(O)c1=O [Compound 1.152]
Quantity: herbicidal damage, PRE Application IPOHE
Observed Result: 1 (1=0-19% damage)
--
Compound: COc1nccc(-c2cnn(C)c(=O)c2O)c1Cl [Compound 1.150]
Quantity: herbicidal damage, PRE Application IPOHE
Observed Result: 2 (2=20-39% damage)
--
Compound: COc1ccc(-c2cnn(C)c(=O)c2O)c(OC)n1 [Compound 1.153]
Quantity: herbicidal damage, PRE Application IPOHE
Observed Result: 3 (3=40-59% damage)
--
Compound: Cc1nc2nc(C(F)(F)F)c(-c3cnn(C)c(=O)c3O)cc2cc1F [Compound 1.151]
Quantity: herbicidal damage, PRE Application IPOHE
Observed Result: 5 (5=80-100% damage)
--
Compound: Cn1ncc(-c2cc3cc(N4CCOCC4)cnc3nc2C(F)(F)F)c(O)c1=O [Compound 1.164]
Quantity: herbicidal damage, PRE Application IPOHE
Observed Result: 4 (4=60-79% damage)
